- Test system: Escherichia coli TOP10
- test: shrunken log2 fold change of peptide-encoding DNA abundance (4.5 h post-induction vs induction); higher = less antimicrobial activity (less host growth inhibition)
- particulars: time post-induction: 4.5 h; library: site-saturation at positions 5, 18, 19, 20
# shrunken log2 fold change listing for each entry below

{"sequence": "RRIRFRPPRLPRPRPRPDGYPRP", "shrunken log2 fold change": 0.028}
{"sequence": "RRIRDRPPRLPRPRPRPMFHPRP", "shrunken log2 fold change": -0.0543}
{"sequence": "RRIRERPPRLPRPRPRPGAGPRP", "shrunken log2 fold change": 0.395}
{"sequence": "RRIRCRPPRLPRPRPRPPPEPRP", "shrunken log2 fold change": 1.32}
{"sequence": "RRIRIRPPRLPRPRPRPRQRPRP", "shrunken log2 fold change": 0.211}
{"sequence": "RRIRPRPPRLPRPRPRPNCTPRP", "shrunken log2 fold change": -0.0727}
{"sequence": "RRIRFRPPRLPRPRPRPTLMPRP", "shrunken log2 fold change": 0.0425}
{"sequence": "RRIRKRPPRLPRPRPRPRFKPRP", "shrunken log2 fold change": 0.52}

---

- Test system: Escherichia coli TOP10;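 further: peptides expressed intracellularly from a pBAD plasmid library in pooled LB shake-flask culture, induced with 0.3% L-arabinose, DNA abundance read by NGS, three biological replicates, DESeq2 with apeglm shrinkage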
- test: shrunken log2 fold change of peptide-encoding DNA abundance (4.5 h post-induction vs induction); higher = less antimicrobial activity (less host growth inhibition)
- particulars: time post-induction: 4.5 h; library: site-saturation at positions 5, 18, 19, 20
Binning of shrunken log2 fold change into classes: c1 = under -0.2, c2 = from -0.2 up to 0.04, c3 = 0.04 and over

{"sequence": "RRIRIRPPRLPRPRPRPVRHPRP", "assay_target": "Escherichia coli TOP10", "label": "c2"}
{"sequence": "RRIRRRPPRLPRPRPRPDASPRP", "assay_target": "Escherichia coli TOP10", "label": "c2"}
{"sequence": "RRIRKRPPRLPRPRPRPKRRPRP", "assay_target": "Escherichia coli TOP10", "label": "c2"}
{"sequence": "RRIRIRPPRLPRPRPRPGVTPRP", "assay_target": "Escherichia coli TOP10", "label": "c2"}
{"sequence": "RRIRHRPPRLPRPRPRPAMEPRP", "assay_target": "Escherichia coli TOP10", "label": "c3"}
{"sequence": "RRIRCRPPRLPRPRPRPTFDPRP", "assay_target": "Escherichia coli TOP10", "label": "c2"}
{"sequence": "RRIRERPPRLPRPRPRPASTPRP", "assay_target": "Escherichia coli TOP10", "label": "c1"}
{"sequence": "RRIRLRPPRLPRPRPRPYWEPRP", "assay_target": "Escherichia coli TOP10", "label": "c2"}
{"sequence": "RRIRSRPPRLPRPRPRPWYFPRP", "assay_target": "Escherichia coli TOP10", "label": "c1"}
{"sequence": "RRIRRRPPRLPRPRPRPETKPRP", "assay_target": "Escherichia coli TOP10", "label": "c3"}
{"sequence": "RRIRTRPPRLPRPRPRPIWSPRP", "assay_target": "Escherichia coli TOP10", "label": "c3"}
{"sequence": "RRIRMRPPRLPRPRPRPKKHPRP", "assay_target": "Escherichia coli TOP10", "label": "c3"}
{"sequence": "RRIRIRPPRLPRPRPRPDSGPRP", "assay_target": "Escherichia coli TOP10", "label": "c2"}
{"sequence": "RRIRHRPPRLPRPRPRPWFNPRP", "assay_target": "Escherichia coli TOP10", "label": "c2"}
{"sequence": "RRIRLRPPRLPRPRPRPQNSPRP", "assay_target": "Escherichia coli TOP10", "label": "c1"}
